Hey, just so you know, these numbers are from PubChem BioAssay AID1159580.

experimental_protocol: chemical genetic growth profiling, strain panel (AID 1159580);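 note: tested at 20 µM; growth read once vehicle control cultures reached saturation at 30 °C; 1 = growth at the plate median or of vehicle wells; lower values mean less growth of the strain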
applied_conditions: S. cerevisiae deletion strains, growth OD, locus YML032C, strain rad52, active compounds read low
About 2,000 (36%) of roughly 5,500 compounds were called active. Not shown: some 18% with an inconclusive outcome. The list shows a part of the results.
Overview of recorded normalized growth for various compounds
Answer with the value's number alone.

CN(C)CCOC(C)(c1ccccc1)c1ccccn1 (stereo not given)	0.997
C=C(C)[C@H]1CC=C(C(=O)O)CC1	0.919
O=C1CCCC2C3CC(CN12)[C@@H]1CCCCN1C3 (stereo not given in full)	1
C/C=C/c1ccc2c(c1)OCO2	0.996
Nc1ccc(S(=O)(=O)Nc2ccccn2)cc1	0.97
Oc1c(Cl)cc(Cl)c2cccnc12	0.0695
COc1cc2c(c(OC)c1OC)-c1ccc(O)c(=O)cc1[C@@H](NC(C)=O)CC2	1
C1CCN2CC3CC(CN4CCCCC34)C2C1 (stereo not given)	1.03
Cc1ccc2cc3c(ccc4ccccc43)c3c2c1CC3	0.908
O=C1C=CC2=C3c4cc(O)c(O)cc4CC3(O)COC2=C1O (stereo not given)	1.05

normalized growth reading for C=CCC1(C(C)CCC)C(=O)N=C(S)NC1=O (stereo not given) : 0.957

normalized growth reading for CCN(CC)CCOc1ccc2c(c1)C(=O)c1cc(OCCN(CC)CC)ccc1-2 : 0.968

normalized growth reading for CCN(CC)CCOc1ccc(/C(=C(\Cl)c2ccccc2)c2ccccc2)cc1 : 0.0749

normalized growth reading for O=C1O[C@H](C(O)CO)C(O)=C1O (stereo not given in full) : 1.02
